activity (% of wild-type transposon) overview
System: Sleeping Beauty transposase SB10 (synthetic (Sleeping Beauty, reconstructed salmonid Tc1/mariner)?)
Assay: cell_activity
Conditions: transposition in HeLa
EXPERIMENTAL ENDPOINT: activity (% of wild-type transposon)

> print(dat)
                         construct.sequence                 experimental.endpoint  test.result
1  GTACATACACGCGCACTTCTGACCCACTGG (double strand) [pT/neo transposon with CAST-5/wt hybrid inner DRs]  activity (% of wild-type transposon)          130
2  GTGACGACCCCAAGTGTACATACACGCGCC (double strand) [pT/neo transposon with 12DRs replaced by CAST-5]  activity (% of wild-type transposon)           65
3  GTGACGACCCCAAGTGTACATACACGCGCC (double strand) [pT/neo transposon with 14DRs replaced by CAST-5]  activity (% of wild-type transposon)            3
4  GTGACGACCCCAAGTGTACATACACGCGCC (double strand) [pT/neo transposon with all four DRs CAST-5]  activity (% of wild-type transposon)          2.2
